pKi: −log10 of the molar value.
Compiled literature pKi, tested on Adenosine receptor A2a (Homo sapiens, UniProt P29274).
Sequence (P29274 whole entry): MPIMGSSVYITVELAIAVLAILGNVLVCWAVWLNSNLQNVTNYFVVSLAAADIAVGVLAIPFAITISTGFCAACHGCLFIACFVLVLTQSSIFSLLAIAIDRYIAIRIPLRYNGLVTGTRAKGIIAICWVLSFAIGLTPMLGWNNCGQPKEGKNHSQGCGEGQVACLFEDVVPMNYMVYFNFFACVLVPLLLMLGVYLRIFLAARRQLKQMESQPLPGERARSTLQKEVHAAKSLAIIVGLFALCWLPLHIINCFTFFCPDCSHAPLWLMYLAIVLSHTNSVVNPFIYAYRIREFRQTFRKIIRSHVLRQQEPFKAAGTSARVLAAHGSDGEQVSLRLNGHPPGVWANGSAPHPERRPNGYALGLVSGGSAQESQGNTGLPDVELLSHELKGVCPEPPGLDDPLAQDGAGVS
observed-property: pKi

A = O=C(O)c1cnc(NC2CCCC2)n2nc(-c3ccco3)nc12
B = CCCn1c(=O)c2[nH]c(-c3ccc(OCC(=O)N4CCN(C(c5ccccc5)c5ccccc5)CC4)cc3)cc2n(CCC)c1=O
C = CNc1nc(NC(=O)Cc2ccccc2)n2nc(-c3ccco3)nc2n1
QUERY: Sort entries by pKi from minimum to maximum value. Respond with an ordered listing of the labels, as requested.
RESULT: A, B, C

----------
Compiled literature Ki, tested on Adenosine receptor A2a (Homo sapiens).
observed-property: Ki (µM)

Known Ki results, listed for orientation:
| molecule | unit-spec | Ki |
| --- | --- | --- |
| Cn1c(=O)c2c(c3ccncc3n2C)n(C)c1=O | µM | 4.19 |
| N#Cc1c(-c2ccccc2)nc(NC(=O)C2CC2)nc1-c1ccccc1 | µM | 0.0455 |
| CCn1nnc([C@H]2O[C@@H](n3cnc4c(N)nc(N[C@H](C)Cc5ccc(OC)cc5)nc43)[C@H](O)[C@@H]2O)n1 | µM | 0.0053 |
| Nc1nc(-c2ccc(OCCN3CCCCC3)cc2)cn2c(=O)n(-c3ccccc3)nc12 | µM | 0.0454 |
| CCCOc1cc(NC(=O)CC)nc(SCCC)n1 | µM | 0.071 |
| CCCn1c(=O)c2[nH]c(-c3ccc(OC(C)C(=O)NCc4ccc(Cl)cc4)cc3)cc2n(CCC)c1=O (stereo not given) | µM | 0.0468 |

I = CCCn1c(=O)c2c(nc(Cc3ccccc3)n2C)n(Cc2ccco2)c1=O
II = CCCC(=O)Nc1nc(-c2ccccc2)c(C#N)c(-c2ccccc2)n1
QUERY: For the pair I and II , which entry has the numerically smaller recorded Ki? // respond with label for picked entry
RESULT: II
(II: 0.0482 µM, I: 0.49 µM)

----------
Compiled literature pKi, tested on Adenosine receptor A2a (Homo sapiens).
pKi: −log10 of the molar value.
observed-property: pKi

Known pKi results, listed for orientation:
| compound | observed-value |
| --- | --- |
| COc1cccc2cc(C(=O)NCCCOCCCCOCCCNC(=O)c3cc4cccc(OC)c4oc3=N)c(=N)oc12 | 6.40 |
| CCCCC/C=C/C=C/C=N/Nc1nc(N)c2ncn([C@@H]3O[C@H](CO)[C@@H](O)[C@H]3O)c2n1 | 7.76 |
| Nc1nc(-n2ccnn2)c2cnn(Cc3ccccc3F)c2n1 | 7.15 |

P = O=C(Nc1nc2nn(CCc3ccccc3)cc2c2nc(-c3ccco3)nn12)C(c1ccccc1)c1ccccc1
Q = Cc1ccccc1OCC(=O)Nc1nnc(-c2ccccc2)[nH]1
QUERY: Recorded pKi values differ for P and Q ; which one is higher? // respond with label for picked entry
RESULT: P

a = CCCn1c(=O)c2nc(-c3ccc(OCC(=O)c4ccc(I)cc4)cn3)[nH]c2n(CCC)c1=O
b = Nc1nc(OCCN2CCN(c3ccc(F)cc3F)CC2)cc2nc(-c3ccco3)nn12
c = Cc1ccccc1C(=O)Nc1ccc(C(=O)Nc2nccs2)cc1
d = CCN(Cc1ccccc1)C(=O)COc1ccc(-c2cc3c([nH]2)c(=O)n(C)c(=O)n3C)cc1
e = Nc1nc(OCCn2cnc3ccccc32)nc2c1ncn2[C@@H]1O[C@H](CO)[C@@H](O)[C@H]1O
QUERY: // ranking: key=pKi, reverse=True Respond with an ordered listing of the labels, as requested.
RESULT: b, a, c, d, e

P = CCOC(=O)c1cnc(N2CCCCC2)n2nc(-c3ccco3)nc12
Q = CNC(=O)[C@H]1OC(n2cnc3c(NCc4cccc(I)c4)ncnc32)[C@](C)(O)[C@@H]1O (stereo not given in full)
QUERY: For the pair P and Q , which entry has the numerically smaller recorded pKi? // respond with label for picked entry
RESULT: P

P = O[C@@H]1[C@H](O)[C@@H]2C[C@@H]2[C@H]1n1cnc2c(NCc3cccc(I)c3)nc(F)nc21
Q = Nc1ccc(N)c2c1C(=O)c1ccccc1C2=O
QUERY: For the pair P and Q , which entry has the numerically smaller recorded pKi? // respond with label for picked entry
RESULT: P
